# EXPERIMENT_NOTES: Cytotoxicity against human KB cells assessed as inhibition of cell proliferation after 72 hrs by SRB assay
# Assay type: functional, cell-based
Exercise: for every item that follows, state its recorded IC50.

Name the recorded IC50 for COc1ccc2c(c1)CCN1O[C@@]3(C[C@H]21)C(=O)O[C@@H]1O[C@@]2(C)CC[C@H]4[C@H](C)CC[C@@H]3[C@@]14OO2 . 1.47 µM

I'd like to know its IC50. The molecule in question is COc1ccc2c(c1)CCN1O[C@@]3(C[C@H]21)[C@@H](F)O[C@@H]1O[C@@]2(C)CC[C@H]4[C@H](C)CC[C@@H]3[C@@]14OO2 > 20 µM

Sample C[C@@H]1CC[C@@H]2[C@]34OO[C@](C)(CC[C@@H]13)O[C@H]4OC(=O)[C@@]21C[C@@H]2CCCN2O1 — what was its IC50? 2.34 µM

# get_value(readout='IC50', item= C[C@@H]1CC[C@@H]2[C@]34OO[C@](C)(CC[C@@H]13)O[C@H]4OC(=O)[C@@]21CC(c2ccccc2)=NO1 ) > 20 µM

So what does the record say about IC50 for COc1ccc(C2=NO[C@@]3(C2)C(=O)O[C@@H]2O[C@@]4(C)CC[C@H]5[C@H](C)CC[C@@H]3[C@@]25OO4)cc1 ? > 20 µM

I am curious: what IC50 value has been reported for COc1ccc2c(c1)CCN1O[C@@]3(C[C@H]21)[C@H](F)O[C@@H]1O[C@@]2(C)CC[C@H]4[C@H](C)CC[C@@H]3[C@@]14OO2 ? > 20 µM

The reported numbers originate from ChEMBL document CHEMBL3632476.
